- tgt: T1, Human PDGF-BB (human, UniProt P01127 82-190)
- T1 construct: Recombinant human PDGF-BB, a homodimer of two B chains; also called hPDGF-BB; huPDGF-BB
- procedure_text: SPR (Biacore), antibody captured via anti-human Fc, antigen in solution
pKd: −log10 of the molar value.
observation_type: pKd

// solved cases for pKd follow
{"columns": ["binder", "measured_value"],
 "data": [
  ["hBDI-9E8.11 (antibody, V domains shown, Humanized IgG) VH: EVQLVESGGGLVQPGGSLRLSCAFSGFSLSTYGMGVGWIRQAPGKGLEWLANIWWDDDKYYNPSLKNRLTISKDTSKNQAYLQINSLRAEDTAVYYCARIESIGTTYSFDYWGQGTLVTVSS VL: DFVLTQSPDSLAVSLGERATINCERSSGDIGDSYVSWYQQKPGQPPKNVIYADDQRPSGVPDRFSGSGSGNSASLTISSLQAEDVAVYFCQSYDINIDIVFGGGTKVEIK", "≥ 10.13"],
  ["hBDI-9E8.12 (antibody, V domains shown, Humanized IgG) VH: EVQLVESGGGLVQPGGSLRLSCAFSGFSLSTYGMGVGWIRQAPGKGLEWLANIWWDDDKYYNPSLKNRLTISKDTSKNQAYLQINSLRAEDTAVYYCARIESIGTTYSFDYWGQGTLVTVSS VL: DFQLTQSPSSLSASVGDRVTITCERSSGDIGDSYVSWYQQKPGKAPKNVIYADDQRPSGVPSRFSGSGSGNSASLTISSLQPEDFATYYCQSYDINIDIVFGQGTKVEIK", "≥ 9.68"],
  ["hBDI-9E8.3 (antibody, V domains shown, Humanized IgG) VH: EVTLRESGPALVKPTQTLTLTCTFSGFSLSTYGMGVGWIRQPPGKALEWLANIWWDDDKYYNPSLKNRLTISKDTSKNQVVLTMTNMDPVDTATYYCARIESIGTTYSFDYWGQGTMVTVSS VL: EIVLTQSPGTLSLSPGERATLSCERSSGDIGDSYVSWYQQKPGQAPRLLIYADDQRPSGIPDRFSGSGSGTDFTLTISRLEPEDFAVYYCQSYDINIDIVFGGGTKVEIK", "≥ 10.19"]
]}

Which pKd reading was recorded for the binder hBDI-9E8.7 (antibody, V domains shown, Humanized IgG) VH: EVTLRESGPALVKPTQTLTLTCTFSGFSLSTYGMGVGWIRQPPGKGLEWLANIWWDDDKYYNPSLKNRLTISKDTSKNQAVLTITNMDPVDTATYYCARIESIGTTYSFDYWGQGTMVTVSS VL: EIVLTQSPGTLSLSPGERATLSCERSSGDIGDSYVSWYQQKPGQAPRLLIYADDQRPSGIPDRFSGSGSGTDFTLTISRLEPEDFAVYYCQSYDINIDIVFGGGTKVEIK ?
≥ 10.35

Record: hBDI-9E8.2 (antibody, V domains shown, Humanized IgG) VH: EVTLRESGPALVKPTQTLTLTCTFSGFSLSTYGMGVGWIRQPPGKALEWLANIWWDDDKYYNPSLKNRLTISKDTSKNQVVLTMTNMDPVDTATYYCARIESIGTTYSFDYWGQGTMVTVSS VL: NFMLTQPHSVSESPGKTVTISCERSSGDIGDSYVSWYQQRPGSPPTNVIYADDQRPSGVPDRFSGSIDSSSNSASLTISGLKTEDEADYFCQSYDINIDIVFGGGTKLTVL
≥ 9.29

Record: hBDI-9E8.9 (antibody, V domains shown, Humanized IgG) VH: EVTLRESGPALVKPTQTLTLTCTFSGFSLSTYGMGVGWIRQPPGKALEWLANIWWDDDKYYNPSLKNRLTISKDTSKNQAVLTITNMDPVDTATYYCARIESIGTTYSFDYWGQGTTVTVSS VL: DFVLTQSPDSLAVSLGERATINCERSSGDIGDSYVSWYQQKPGQPPKNVIYADDQRPSGVPDRFSGSGSGNSASLTISSLQAEDVAVYFCQSYDINIDIVFGGGTKVEIK
≥ 9.82

Record: hBDI-9E8.6 (antibody, V domains shown, Humanized IgG) VH: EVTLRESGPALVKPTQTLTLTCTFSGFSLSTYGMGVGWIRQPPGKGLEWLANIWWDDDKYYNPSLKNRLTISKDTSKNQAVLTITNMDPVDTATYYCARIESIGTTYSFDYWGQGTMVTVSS VL: NFMLTQPHSVSESPGKTVTISCERSSGDIGDSYVSWYQQRPGSPPTNVIYADDQRPSGVPDRFSGSIDSSSNSASLTISGLKTEDEADYFCQSYDINIDIVFGGGTKLTVL
≥ 9.68

Record: hBDI-5H1.10 (antibody, V domains shown, Humanized IgG) VH: EVTLRESGPALVKPTQTLTLTCTFSGFSLSTFGMGVGWIRQPPGKALEWLANIWWDDDKYYNPSLKNRLTISKDTSKNQAVLTITNMDPVDTATYYCARISTGISSYYVMDAWGQGTTVTVSS VL: DFQLTQSPSSLSASVGDRVTITCERSSGDIGDTYVSWYQQKPGKAPKNVIYGNDQRPSGVPSRFSGSGSGNSATLTISSLQPEDFATYFCQSYDSDIDIVFGQGTKVEIK
≥ 9.64

Record: hBDI-5H1.4 (antibody, V domains shown, Humanized IgG) VH: EVTLRESGPALVKPTQTLTLTCTFSGFSLSTFGMGVGWIRQPPGKALEWLANIWWDDDKYYNPSLKNRLTISKDTSKNQVVLTMTNMDPVDTATYYCARISTGISSYYVMDAWGQGTTVTVSS VL: EFVLTQSPGTLSLSPGERATLSCERSSGDIGDTYVSWYQQKPGQAPRLVIYGNDQRPSGIPDRFSGSGSGTDFTLTISRLEPEDFAVYYCQSYDSDIDIVFGGGTKVEIK
≥ 8.85

Record: hBDI-9E8.1 (antibody, V domains shown, Humanized IgG) VH: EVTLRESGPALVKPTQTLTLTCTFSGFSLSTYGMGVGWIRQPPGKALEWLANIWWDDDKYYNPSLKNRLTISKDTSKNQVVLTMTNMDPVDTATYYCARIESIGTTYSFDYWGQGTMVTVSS VL: NFMLTQPHSVSESPGKTVTISCERSSGDIGDSYVSWYQQRPGSSPTTVIYADDQRPSGVPDRFSGSIDSSSNSASLTISGLKTEDEADYYCQSYDINIDIVFGGGTKLTVL
≥ 9.25

Record: hBDI-5H1.6 (antibody, V domains shown, Humanized IgG) VH: EVTLKESGPALVKPTQTLTLTCTFSGFSLSTFGMGVGWIRQPPGKALEWLANIWWDDDKYYNPSLKNRLTISKDTSKNQAVLTITNMDPVDTATYYCARISTGISSYYVMDAWGQGTTVTVSS VL: NFMLTQPHSVSESPGKTVTISCERSSGDIGDTYVSWYQQRPGSPPTNVIYGNDQRPSGVPDRFSGSIDSSSNSASLTISGLKTEDEADYFCQSYDSDIDIVFGGGTKLTVL
≥ 10.09
